Target: Retinoic acid receptor: RAR (Homo sapiens, UniProt P10276)
Construct: using a fraction extracted from the nucleus of HL60; endogenous in cells; host or cells: HL60 cells, nucleus-extracted fraction (0.4 M KCl extract, 100,000 x g supernatant)
Sequence (P10276 1-462): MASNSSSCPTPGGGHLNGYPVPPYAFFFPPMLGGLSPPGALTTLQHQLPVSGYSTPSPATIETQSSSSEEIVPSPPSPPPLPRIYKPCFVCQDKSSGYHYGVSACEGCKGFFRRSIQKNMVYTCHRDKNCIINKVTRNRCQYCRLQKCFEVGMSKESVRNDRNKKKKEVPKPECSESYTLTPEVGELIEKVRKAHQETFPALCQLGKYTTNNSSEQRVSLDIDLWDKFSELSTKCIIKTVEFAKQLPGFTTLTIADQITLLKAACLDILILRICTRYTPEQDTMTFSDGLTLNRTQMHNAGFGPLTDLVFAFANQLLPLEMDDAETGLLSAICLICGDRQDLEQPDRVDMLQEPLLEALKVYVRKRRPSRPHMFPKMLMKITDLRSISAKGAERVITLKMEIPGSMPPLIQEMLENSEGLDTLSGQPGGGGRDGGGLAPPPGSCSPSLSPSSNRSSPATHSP
Test: Receptor binding assay by using human promyelocytic leukemia cells HL60 (nucleus-extracted fraction, 3H-all-trans retinoic acid)
Conditions: 50% inhibition concentration of 3H-all-trans retinoic acid binding, 4° C. for 16 hours
The reader will find reported IC50 values listed item by item below.

[
  {
    "molecule": "CC1(C)CCC(C)(C)c2cc(-c3ccc(-c4ccc(C(=O)O)cc4)[nH]3)ccc21 [1), reference compound]",
    "value_operator": "=",
    "IC50 / nM": 0.5
  },
  {
    "molecule": "CC1(C)CCC(C)(C)c2nc(-c3ccc(-c4ccc(C(=O)O)cc4)[nH]3)cnc21",
    "value_operator": "=",
    "IC50 / nM": 1.6
  },
  {
    "molecule": "CC1(C)CCC(C)(C)c2nc(-c3cc(-c4ccc(C(=O)O)cc4)co3)cnc21",
    "value_operator": "=",
    "IC50 / nM": 7.2
  },
  {
    "molecule": "CC(C)c1cc(-c2ccc(-c3ccc(C(=O)O)cc3)[nH]2)nn1C(C)(C)C",
    "value_operator": "=",
    "IC50 / nM": 3.4
  },
  {
    "molecule": "CC1(C)CCC(C)(C)c2nc(-c3cc(-c4ccc(C(=O)O)cc4)no3)cnc21",
    "value_operator": "=",
    "IC50 / nM": 11
  },
  {
    "molecule": "CN1CCCC(C)(C)c2cc(-c3ccc(-c4ccc(C(=O)O)cc4)[nH]3)ccc21",
    "value_operator": "<",
    "IC50 / nM": 0.5
  },
  {
    "molecule": "CC1(C)CC(C)(C)c2nc(-c3ccc(-c4ccc(C(=O)O)cc4)[nH]3)cnc21",
    "value_operator": "=",
    "IC50 / nM": 36
  },
  {
    "molecule": "CC(C)c1ncc(-c2ccc(-c3ccc(C(=O)O)cc3)[nH]2)nc1C(C)C",
    "value_operator": "=",
    "IC50 / nM": 2
  }
]

# credit: patent US6884808B2
